Target: human TFPI alpha (full-length TFPIα) (human, UniProt P10646 29-304)
Assay: cell-based or functional assay
Below, each of the binders is paired with its reported thrombin peak (nM) at 25.0 nM, FVIII-neutralised plasma + 2 nM TFPIα value.
Provide the reading as a plain figure in nM.

Answered cases to consult:
mAb 2021 (antibody, human IgG4 S228P, kappa, V domains shown) VH: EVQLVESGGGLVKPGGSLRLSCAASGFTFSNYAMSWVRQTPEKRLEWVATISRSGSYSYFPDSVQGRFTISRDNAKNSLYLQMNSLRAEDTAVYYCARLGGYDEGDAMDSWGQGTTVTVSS VL: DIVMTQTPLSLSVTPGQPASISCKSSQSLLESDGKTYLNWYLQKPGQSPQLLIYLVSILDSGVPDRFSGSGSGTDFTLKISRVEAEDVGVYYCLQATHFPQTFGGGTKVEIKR = 68.4
Fab 0088 (Fab fragment of mAb 2021) (Fab, V domains shown, free C-terminal cysteine; KPI-2 specific) VH: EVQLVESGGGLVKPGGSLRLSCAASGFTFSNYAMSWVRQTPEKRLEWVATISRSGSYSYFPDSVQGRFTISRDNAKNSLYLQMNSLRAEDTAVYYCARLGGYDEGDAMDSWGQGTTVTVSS VL: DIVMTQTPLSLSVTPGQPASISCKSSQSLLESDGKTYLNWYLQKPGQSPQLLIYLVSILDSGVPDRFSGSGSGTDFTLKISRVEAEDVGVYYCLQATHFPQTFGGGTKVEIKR = 69.8

We now examine a further binder.
For the binder Fab 0094 (Fab fragment of mAb 2007) (Fab, V domains shown, KPI-2 specific) VH: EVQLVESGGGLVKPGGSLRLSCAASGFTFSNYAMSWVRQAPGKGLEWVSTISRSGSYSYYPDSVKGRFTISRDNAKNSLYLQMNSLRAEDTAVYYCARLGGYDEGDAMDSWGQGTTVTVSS VL: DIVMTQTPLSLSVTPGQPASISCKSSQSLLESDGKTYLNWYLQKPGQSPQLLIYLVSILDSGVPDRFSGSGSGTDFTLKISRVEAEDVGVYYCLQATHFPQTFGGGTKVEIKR , what thrombin peak (nM) at 25.0 nM, FVIII-neutralised plasma + 2 nM TFPIα is on record?
14.3
